Test: Plasma Protein Binding
Assay type: in vitro ADME
Conditions: rat
Reported values of fraction unbound at 10 μM for individual entries
observable: fraction unbound at 10 μM

compound	value_observed
O=C(O)c1sc(-c2ccc(Cl)cc2)nc1OCc1ccc(Cl)cc1 [Compound 45]	0.01
CCOC(=O)c1sc(-c2cccc(F)c2)nc1O [Compound 10]	0.02

----------
Test: Pharmacokinetic profile in rat
Format: in vivo
Conditions: plasma, iv, read-out: t1/2 i.v. rat

substance_smiles	half-life [h]
O=C(O)c1sc(-c2ccc(Cl)cc2)nc1OCc1ccc(Cl)cc1	4
CCOC(=O)c1sc(-c2cccc(F)c2)nc1O	0.833

----------
Assay: Pharmacokinetic profile in rat
Type: in vivo
Conditions: plasma, oral bioavailability
observable: bioavailability (%)

compound	units	value_observed
O=C(O)c1sc(-c2ccc(Cl)cc2)nc1OCc1ccc(Cl)cc1 [Compound 45]	%	60
